# ASSAYED SYSTEM: PUF variant QFR/VFQ (human, UniProt Q14671 828-1176, S863Q;R864F;Q867R;N899V;Y900F)
# Sequence (Q14671 828-1176 S863Q/R864F/Q867R/N899V/Y900F): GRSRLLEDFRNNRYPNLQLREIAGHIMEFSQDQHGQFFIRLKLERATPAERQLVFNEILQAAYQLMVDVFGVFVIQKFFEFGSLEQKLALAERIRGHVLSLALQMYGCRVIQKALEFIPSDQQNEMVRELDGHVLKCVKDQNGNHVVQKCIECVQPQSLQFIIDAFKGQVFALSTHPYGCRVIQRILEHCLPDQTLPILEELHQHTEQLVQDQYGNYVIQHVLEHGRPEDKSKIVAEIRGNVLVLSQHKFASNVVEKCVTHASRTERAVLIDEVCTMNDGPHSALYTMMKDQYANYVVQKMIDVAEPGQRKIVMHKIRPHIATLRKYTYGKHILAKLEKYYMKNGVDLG
# METHOD DESCRIPTION: EMSA; 10 mM HEPES pH 7.3, 50 mM NaCl, 2 mM DTT, 0.05% Tween 20, 0.1 mg/ml BSA, 0.1 mg/ml yeast tRNA; ~10 nM RNA, 0-1 uM protein, 1 h on ice; 1.2% agarose gel, 1x TBE, room temperature
# CONDITIONS USED: protein: recombinant; tags: N-terminal GST (pGEX-6P-1) removed by HRV3C protease; label: 5' 32P
READOUT NAME: Kd

The binder listed as GGUAAGUGUAAAACGUCUGCAU (ssRNA) [QFR/VFQ target RNA] shows Kd equal to ~110 nM

Just for reference, paper PMC8384837 is where these values come from.
